Entries and their mass density
settings: 303.15 K; 101.33 kPa; Liquid; Vibrating tube method
Give just the number in kg/m3; leave the unit off.

// below: answered compounds
CCC[n+]1ccn(C)c1.O=P([O-])(O)O [1-methyl-3-propylimidazolium dihydrogen phosphate]; 1191.95
CCCCn1cc[n+](C)c1.O=C([O-])O [1-butyl-3-methylimidazolium hydrogen carbonate]; 1153.64
CCn1cc[n+](C)c1C.O=S(=O)([O-])O [1-ethyl-2,3-dimethylimidazolium hydrogen sulfate]; 1250.77

Field: next compound
Task: Query (compound): CCCn1cc[n+](C)c1C.O=S(=O)([O-])O [2,3-dimethyl-1-propylimidazolium hydrogen sulfate] ; field requested: mass density
Result: 1229.24

---

settings: 318.15 K, Maximal bubble pressure
In this section, each of the compounds is paired with its reported surface tension liquid-gas.
Write the value in mN/m as a bare number.

CCCCC[n+]1ccn(C)c1.O=P([O-])(O)O [1-methyl-3-pentylimidazolium dihydrogen phosphate]; 40
CCn1cc[n+](C)c1C.O=S(=O)([O-])O [1-ethyl-2,3-dimethylimidazolium hydrogen sulfate]; 48.7
CCC[n+]1ccn(C)c1.O=P([O-])(O)O [1-methyl-3-propylimidazolium dihydrogen phosphate]; 44.6
CCCCn1cc[n+](C)c1C.O=S(=O)([O-])O [1-butyl-2,3-dimethylimidazolium hydrogen sulfate]; 43.7

Here is another compound to look at.
Task: # input compound: CCCn1cc[n+](C)c1C.O=S(=O)([O-])O [2,3-dimethyl-1-propylimidazolium hydrogen sulfate] ; wanted: its surface tension liquid-gas
Result: 46.1

---

settings: 338.15 K; 101.33 kPa; Liquid; Alternating current cell with electrodes
measured.endpoint: electrical conductivity

CCCCCn1cc[n+](C)c1.O=C([O-])O [3-methyl-1-pentylimidazolium hydrogen carbonate]; 0.733 S/m

Task: # get_value(readout='electrical conductivity', item= CCCCn1cc[n+](C)c1C.O=S(=O)([O-])O [1-butyl-2,3-dimethylimidazolium hydrogen sulfate] )
Result: 0.631 S/m

Task: Query (compound): CCCCn1cc[n+](C)c1.O=P([O-])(O)O [1-butyl-3-methylimidazolium dihydrogen phosphate] ; field requested: electrical conductivity
Result: 1.06 S/m

Task: Param item = CCC[n+]1ccn(C)c1.O=P([O-])(O)O [1-methyl-3-propylimidazolium dihydrogen phosphate] ; retrieve measured electrical conductivity.
Result: 1.41 S/m

Task: Requested read-out: electrical conductivity. Entry: CCCCn1cc[n+](C)c1.O=C([O-])O [1-butyl-3-methylimidazolium hydrogen carbonate]
Result: 0.893 S/m

Task: I am curious: what electrical conductivity value has been reported for CCn1cc[n+](C)c1C.O=S(=O)([O-])O [1-ethyl-2,3-dimethylimidazolium hydrogen sulfate] ?
Result: 0.787 S/m

---

conditions: 288.15 K; 101.33 kPa; Liquid; Concentric cylinders viscometry
Documented viscosity across a set of compounds
# unit: mPa·s | format: bare number

Worked examples follow.
CCCCn1cc[n+](C)c1.O=P([O-])(O)O [1-butyl-3-methylimidazolium dihydrogen phosphate]; 198.7
CCCCn1cc[n+](C)c1.O=C([O-])O [1-butyl-3-methylimidazolium hydrogen carbonate]; 122.9
CCCCn1cc[n+](C)c1C.O=S(=O)([O-])O [1-butyl-2,3-dimethylimidazolium hydrogen sulfate]; 628.5
CCCCCn1cc[n+](C)c1.O=C([O-])O [3-methyl-1-pentylimidazolium hydrogen carbonate]; 179.6
CCCn1cc[n+](C)c1C.O=S(=O)([O-])O [2,3-dimethyl-1-propylimidazolium hydrogen sulfate]; 500.4

Task: Dear colleague, I am looking for the recorded viscosity of the following compound: CCCCC[n+]1ccn(C)c1.O=P([O-])(O)O [1-methyl-3-pentylimidazolium dihydrogen phosphate]
Result: 327.8

Task: Name the reported viscosity value associated with the compound CCn1cc[n+](C)c1C.O=S(=O)([O-])O [1-ethyl-2,3-dimethylimidazolium hydrogen sulfate]
Result: 375

Task: What viscosity value was documented for this compound, CCCCCn1cc[n+](C)c1C.O=S(=O)([O-])O [2,3-dimethyl-1-pentylimidazolium hydrogen sulfate] ?
Result: 772.4

Task: Please give the measured viscosity for this compound: CCC[n+]1ccn(C)c1.O=P([O-])(O)O [1-methyl-3-propylimidazolium dihydrogen phosphate]
Result: 99.38

---

conditions: 293.15 K, Maximal bubble pressure
Param threshold (40 mN/m) applies to surface tension liquid-gas; output t when value >= threshold, f when value < threshold.

CCCCn1cc[n+](C)c1.O=C([O-])O [1-butyl-3-methylimidazolium hydrogen carbonate]; f
CCCCCn1cc[n+](C)c1.O=C([O-])O [3-methyl-1-pentylimidazolium hydrogen carbonate]; f

Now turn to the next molecule.
Task: Please indicate if the recorded surface tension liquid-gas for CCC[n+]1ccn(C)c1.O=P([O-])(O)O [1-methyl-3-propylimidazolium dihydrogen phosphate] meets or exceeds 40 mN/m.
Result: t

---

conditions: 318.15 K; 101.33 kPa; Liquid; Alternating current cell with electrodes
measured.endpoint: electrical conductivity (S/m)
Unit S/m implied. Number only.

A selection of reference data follows.
CCn1cc[n+](C)c1C.O=S(=O)([O-])O [1-ethyl-2,3-dimethylimidazolium hydrogen sulfate]; 0.377
CCC[n+]1ccn(C)c1.O=P([O-])(O)O [1-methyl-3-propylimidazolium dihydrogen phosphate]; 0.977
CCCCn1cc[n+](C)c1.O=C([O-])O [1-butyl-3-methylimidazolium hydrogen carbonate]; 0.622

Read the next record carefully.
Task: Record request: electrical conductivity value, item CCCCCn1cc[n+](C)c1C.O=S(=O)([O-])O [2,3-dimethyl-1-pentylimidazolium hydrogen sulfate]
Result: 0.257

---

details: 343.15 K, Maximal bubble pressure
measured.endpoint: surface tension liquid-gas (mN/m)
Numbers only here, please. The scale is mN/m.

Use these answered entries as a reference point.
CCn1cc[n+](C)c1C.O=S(=O)([O-])O [1-ethyl-2,3-dimethylimidazolium hydrogen sulfate]; 47.2
CCCCn1cc[n+](C)c1.O=P([O-])(O)O [1-butyl-3-methylimidazolium dihydrogen phosphate]; 40.8
CCC[n+]1ccn(C)c1.O=P([O-])(O)O [1-methyl-3-propylimidazolium dihydrogen phosphate]; 43.1

Please turn your attention to the following entry.
Task: Consider the compound shown here: CCCCCn1cc[n+](C)c1C.O=S(=O)([O-])O [2,3-dimethyl-1-pentylimidazolium hydrogen sulfate] What is its recorded surface tension liquid-gas?
Result: 39.6

---

conditions: 313.15 K, Maximal bubble pressure
surface tension liquid-gas listing for selected compounds.
Give the value, in units of mN/m, as a plain number.

# count of solved cases: 4
CCn1cc[n+](C)c1C.O=S(=O)([O-])O [1-ethyl-2,3-dimethylimidazolium hydrogen sulfate]; 49
CCCCn1cc[n+](C)c1.O=C([O-])O [1-butyl-3-methylimidazolium hydrogen carbonate]; 32.6
CCCCn1cc[n+](C)c1.O=P([O-])(O)O [1-butyl-3-methylimidazolium dihydrogen phosphate]; 42.6
CCCCCn1cc[n+](C)c1C.O=S(=O)([O-])O [2,3-dimethyl-1-pentylimidazolium hydrogen sulfate]; 41.2

Now take the following compound into account.
Task: Which surface tension liquid-gas reading was recorded for the compound CCC[n+]1ccn(C)c1.O=P([O-])(O)O [1-methyl-3-propylimidazolium dihydrogen phosphate] ?
Result: 44.9

---

details: 313.15 K; 101.33 kPa; Liquid; Concentric cylinders viscometry
viscosity less than 70 mPa·s is satisfied; viscosity greater than or equal to 70 mPa·s is not satisfied.

As a guide, the following entries are already answered.
CCCCn1cc[n+](C)c1.O=P([O-])(O)O [1-butyl-3-methylimidazolium dihydrogen phosphate]; satisfied
CCC[n+]1ccn(C)c1.O=P([O-])(O)O [1-methyl-3-propylimidazolium dihydrogen phosphate]; satisfied
CCCCn1cc[n+](C)c1.O=C([O-])O [1-butyl-3-methylimidazolium hydrogen carbonate]; satisfied
CCCCCn1cc[n+](C)c1C.O=S(=O)([O-])O [2,3-dimethyl-1-pentylimidazolium hydrogen sulfate]; not satisfied
CCCn1cc[n+](C)c1C.O=S(=O)([O-])O [2,3-dimethyl-1-propylimidazolium hydrogen sulfate]; not satisfied

Task: Lab note: viscosity threshold 70 mPa·s. Does this compound come in strictly under it? CCCCC[n+]1ccn(C)c1.O=P([O-])(O)O [1-methyl-3-pentylimidazolium dihydrogen phosphate]
Result: not satisfied

Task: Please check: viscosity for CCn1cc[n+](C)c1C.O=S(=O)([O-])O [1-ethyl-2,3-dimethylimidazolium hydrogen sulfate] , strictly under 70 mPa·s or not?
Result: not satisfied

Task: Answer whether the compound CCCCn1cc[n+](C)c1C.O=S(=O)([O-])O [1-butyl-2,3-dimethylimidazolium hydrogen sulfate] has viscosity strictly less than 70 mPa·s
Result: not satisfied

Task: In plain terms, does CCCCCn1cc[n+](C)c1.O=C([O-])O [3-methyl-1-pentylimidazolium hydrogen carbonate] come in under 70 mPa·s for viscosity?
Result: satisfied

---

settings: 298.15 K; 101.33 kPa; Liquid; Alternating current cell with electrodes
Would you mind labelling by electrical conductivity? At or over 0.2 S/m is YES, under is NO.

Worked set:
CCCn1cc[n+](C)c1C.O=S(=O)([O-])O [2,3-dimethyl-1-propylimidazolium hydrogen sulfate]; NO
CCCCCn1cc[n+](C)c1.O=C([O-])O [3-methyl-1-pentylimidazolium hydrogen carbonate]; YES
CCCCn1cc[n+](C)c1C.O=S(=O)([O-])O [1-butyl-2,3-dimethylimidazolium hydrogen sulfate]; NO

Task: Can CCCCn1cc[n+](C)c1.O=P([O-])(O)O [1-butyl-3-methylimidazolium dihydrogen phosphate] be said to have electrical conductivity at or above 0.2 S/m?
Result: YES

Task: Is electrical conductivity for CCCCC[n+]1ccn(C)c1.O=P([O-])(O)O [1-methyl-3-pentylimidazolium dihydrogen phosphate] at or above 0.2 S/m?
Result: YES

Task: Threshold query (electrical conductivity >= 0.2 S/m) on CCCCn1cc[n+](C)c1.O=C([O-])O [1-butyl-3-methylimidazolium hydrogen carbonate]
Result: YES

Task: Could you please find out whether CCCCCn1cc[n+](C)c1C.O=S(=O)([O-])O [2,3-dimethyl-1-pentylimidazolium hydrogen sulfate] has electrical conductivity that meets 0.2 S/m or exceeds it?
Result: NO

Task: Is reported electrical conductivity greater than or equal to 0.2 S/m here: CCC[n+]1ccn(C)c1.O=P([O-])(O)O [1-methyl-3-propylimidazolium dihydrogen phosphate]
Result: YES

Task: Given the entry CCn1cc[n+](C)c1C.O=S(=O)([O-])O [1-ethyl-2,3-dimethylimidazolium hydrogen sulfate] , answer whether its electrical conductivity meets or surpasses 0.2 S/m.
Result: NO

Where do the numbers come from? From the NIST ThermoML archive (doi:10.1021/acs.jced.5b00860).
